We begin with a simple list: items and their reported folding stability dG unfold.
protocol.text: folding stability dG unfold from trypsin proteolysis; higher = more stable

[
  {
    "seq": "SAGGSAGGSAGMTITLPNGAEITSIEINEDGTITITVRVNGKTLTLTITVTLPPPPPEEPSAGGSAGGSAGG [r17_421_TrROS_Hall]",
    "folding stability dG unfold": "3.67 kcal/mol"
  },
  {
    "seq": "SAGGSAGGSAGGSLKVEVTLDPETNELTVRTTLTLPPPPPPPPTTTTTTTTTLAPGETASAGGSAGGSAGGS [r10_86_TrROS_Hall]",
    "folding stability dG unfold": "-0.349 kcal/mol"
  },
  {
    "seq": "SAGGSAGGSAPPLKILRPEATVHPDGGVTVVAELEGGYLVVETVTFDPETGTASSSVEIVPLDSAGGSAGGS [r20_15_TrMRF]",
    "folding stability dG unfold": "-0.813 kcal/mol"
  },
  {
    "seq": "SAGGSAGGPEITIIIGNAGPIEVALKTAKEIKKILEEKGYPNVKIPILIIPFGSPEKLKEALGGSAGGSAGG [r6_476_TrMRF]",
    "folding stability dG unfold": "0.0997 kcal/mol"
  },
  {
    "seq": "SAGGMVDVTITFTKPDGTPETRPIPASSLPLEELVARIRALREAGVEAEVELPPSLPEEVREALARLLSAGG [r13_251_JUSTAS]",
    "folding stability dG unfold": "1.78 kcal/mol"
  },
  {
    "seq": "SASLEEILASLGYSVSRSVLPNGTEVVTARHPDGTTVTVTVTPDGTTVTVTPPDGTVTTLSVEDVRRALSAG [r14_578_JUSTAS]",
    "folding stability dG unfold": "2.97 kcal/mol"
  },
  {
    "seq": "SAGGSAGGSAGGETVVLVTYDKETKTLTVQTFELENGELKTTTKTVTLTDEQLESLPPASAGGSAGGSAGGS [r10_291_TrROS_Hall]",
    "folding stability dG unfold": "1.39 kcal/mol"
  },
  {
    "seq": "SAGGSAGGSAGLAEKLRDEIRESIKGPDGLEVPDDVELLSIDVPEDSAFVEVRFPADLPVSAGGSAGGSAGG [r17_519_TrMRF]",
    "folding stability dG unfold": "0.436 kcal/mol"
  },
  {
    "seq": "SMSPEARALARELAERLRELFPGAEIEIRVEVEVNEDGEVTIRVEIRVRPAPPPEVRVVRDEDGRERRLRSA [r9_82_TrROS_Hall]",
    "folding stability dG unfold": "1.09 kcal/mol"
  },
  {
    "seq": "SAGGSAMTPVTLEITSEEELEAKIEELAPPGRTVTINVTSTTEKTRVEDDVTRDYTVVTANVTFPPSAGGSA [r15_95_JUSTAS]",
    "folding stability dG unfold": "0.181 kcal/mol"
  },
  {
    "seq": "SAGEKKIKIEIKEIKPHENGYLSIKAKAYLEDGKKVAEVYEPYPPNLSLEELIEKVIERLEKEVKEKGESAG [r5_697_TrMRF]",
    "folding stability dG unfold": "0.445 kcal/mol"
  },
  {
    "seq": "SAGGSAGGSAGGKITIVVSASSPEEAKRFVGELKALGPADIKVIVVPAPKPLPADDPRAKSAGGSAGGSAGG [r7_261_TrMRF]",
    "folding stability dG unfold": "-0.177 kcal/mol"
  },
  {
    "seq": "STLPPGATRTFEFTDPATGKKITVTLTRLPDGTVRVTLTTTDPATGKTTTETFTLPGETLEALLALVEESSA [r9_618_JUSTAS]",
    "folding stability dG unfold": "4.28 kcal/mol"
  },
  {
    "seq": "SAGGSAGGSDILKNLPPGHKRVEIMFIPNMPMEKMKRMAKEIAPILRKRGVDVEIKVIPPDEMSAGGSAGGS [r12_456_TrROS]",
    "folding stability dG unfold": "0.859 kcal/mol"
  }
]
